Entry source: patent US20240408169A1

# Tested on: OVCAR3 cells
# run.description: MTT proliferation assay, OVCAR3;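 also: compound given as an 8- or 10-point series, one day after plating, with exposure covering roughly 3-4 cell doublings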
# Assay type: cell-based
# assay.setup: 5 days compound exposure, 1:3 serial dilution starting at 10 μM
*1 amine or outer side, *2 acyl side, *3 side chain or, on linkers, in order; H or OH if unused. Where a SMILES comes first, the peptide text is derived from it. Bridges are numbered along the chain shown (N, C = ends). [ ]: non-standard residue; d: D form. The star is where a group is joined. X142 = CN([C@@H](Cc1cc(Cl)ccc1C1=CCN(S(C)(=O)=O)CC1)C(=O)[*:2])[*:1]; X137 = CN([C@@H](Cc1cc(F)ccc1-c1cnn(S(C)(=O)=O)c1)C(=O)[*:2])[*:1]; NMehhhLys(Me) = CN([C@@H](CCCCCCCN(C)[*:3])C(=O)[*:2])[*:1]; X29 = CN([C@@H](Cc1cc(Cl)ccc1-c1cn[nH]c1)C(=O)[*:2])[*:1]; X176 = CN([C@@H](Cc1cc(F)ccc1-c1cccnc1)C(=O)[*:2])[*:1]; NMe(hhhLys) = CN([C@@H](CCCCCCCN[*:3])C(=O)[*:2])[*:1]; NMe3Pal(2-OMe,5-Cl) = CN[C@@H](Cc1cc(Cl)cnc1OC)C(=O)O; X143 = CN([C@@H](Cc1cc(F)cc2cccnc12)C(=O)[*:2])[*:1]; cBuCO(3,3-F2-1-CF3) = O=C(C1(C(F)(F)F)CC(F)(F)C1)*; Pro(trans-4-F) = O=C(O)[C@@H]1C[C@@H](F)CN1; Pivaloyl(3,3,3-F3) = CC(C)(C(=O)*)C(F)(F)F; Gly(cPr) = N[C@H](C(=O)O)C1CC1
Here, each record is paired with measured GI50 data.
State the answer as a number, implicitly in µM.

Query: Look up GI50: CC(C)C[C@@H]1NC(=O)[C@@H](N(C)C(=O)[C@@H](NC(=O)[C@@H]2C[C@@H](F)CN2C(=O)C2(C(F)(F)F)CC(F)(F)C2)C2CC2)CCCCCCCNC(=O)[C@H](Cc2cc(Cl)ccc2C2=CCN(S(C)(=O)=O)CC2)N(C)C1=O [Example 284] ({cBuCO(3,3-F2-1-CF3)}-[Pro(trans-4-F)][Gly(cPr)][NMe(hhhLys)]L[X142]; lactam 3-C)
Result: 0.01

Query: Fill in the blank: the reported GI50 of CC(C)C[C@@H]1NC(=O)[C@@H](N(C)C(=O)[C@@H](NC(=O)[C@@H]2C[C@@H](F)CN2C(=O)C2(C(F)(F)F)CC(F)(F)C2)C2CC2)CCCCCCCN(C)C(=O)[C@H](Cc2cc(F)ccc2-c2cnn(S(C)(=O)=O)c2)N(C)C1=O [Example 95] ({cBuCO(3,3-F2-1-CF3)}-[Pro(trans-4-F)][Gly(cPr)][NMehhhLys(Me)]L[X137]; lactam 3-C) is ____.
Result: 0.02

Query: So what's the measured GI50 for this one? CC(C)C[C@@H]1NC(=O)[C@@H](N(C)C(=O)[C@@H](NC(=O)[C@@H]2C[C@@H](F)CN2C(=O)C2(C(F)(F)F)CC(F)(F)C2)C2CC2)CCCCCCCN(C)C(=O)[C@H](Cc2cc(F)cc3cccnc23)N(C)C1=O [Example 423] ({cBuCO(3,3-F2-1-CF3)}-[Pro(trans-4-F)][Gly(cPr)][NMehhhLys(Me)]L[X143]; lactam 3-C)
Result: 0.07

Query: GI50 lookup needed for CC(C)C[C@@H]1NC(=O)[C@@H](N(C)C(=O)[C@@H](NC(=O)[C@@H]2C[C@@H](F)CN2C(=O)C2(C(F)(F)F)CC(F)(F)C2)C2CC2)CCCCCCCNC(=O)[C@H](Cc2cc(F)ccc2-c2cccnc2)N(C)C1=O [Example 280] ({cBuCO(3,3-F2-1-CF3)}-[Pro(trans-4-F)][Gly(cPr)][NMe(hhhLys)]L[X176]; lactam 3-C) , thanks.
Result: 0.01

Query: Looking for the measured GI50 of COc1ncc(Cl)cc1C[C@H]1C(=O)N(C)CCCCCCC[C@H](N(C)C(=O)[C@@H](NC(=O)[C@@H]2C[C@@H](F)CN2C(=O)C(C)(C)C(F)(F)F)C2CC2)C(=O)N[C@@H](CC(C)C)C(=O)N1C [Example 268] ({Pivaloyl(3,3,3-F3)}-[Pro(trans-4-F)][Gly(cPr)][NMehhhLys(Me)]L[NMe3Pal(2-OMe,5-Cl)]; lactam 3-C) , can you help?
Result: 0.01

Query: Recorded GI50 for CC(C)C[C@@H]1NC(=O)[C@@H](N(C)C(=O)[C@@H](NC(=O)[C@@H]2C[C@@H](F)CN2C(=O)C2(C(F)(F)F)CC(F)(F)C2)C2CC2)CCCCCCCN(C)C(=O)[C@H](Cc2cc(Cl)ccc2-c2cn[nH]c2)N(C)C1=O [Example 167] ({cBuCO(3,3-F2-1-CF3)}-[Pro(trans-4-F)][Gly(cPr)][NMehhhLys(Me)]L[X29]; lactam 3-C) , please?
Result: 0.01

###

Readings of pIC50 for the listed compounds
# experimental.system: CyclinA2/CDK2 (Homo sapiens, UniProt P20248)
# Construct: purchased CRELUX Protein Services
# run.description: Fluorescence Polarization (FP) competitive binding assay, Cyclin A2/Cdk2
# assay.setup: 8 nM Cyclin A2/Cdk2, 2 nM FAM probe; average of 2-3 independent experiments; read-out: Cyclin A FP IC50
*1 amine or outer side, *2 acyl side, *3 side chain or, on linkers, in order; H or OH if unused. Where a SMILES comes first, the peptide text is derived from it. Bridges are numbered along the chain shown (N, C = ends). [ ]: non-standard residue; d: D form. The star is where a group is joined. X62 = CN1CCC[C@H](c2ccc(-c3ccc(Cl)cc3C[C@@H](C(=O)[*:2])N(C)[*:1])cc2)C1; X58 = CC(C)C(=O)N1CC=C(c2ccc(Cl)cc2C[C@@H](C(=O)[*:2])N(C)[*:1])CC1; NMehhhLys(Me) = CN([C@@H](CCCCCCCN(C)[*:3])C(=O)[*:2])[*:1]; NMe(hhhLys) = CN([C@@H](CCCCCCCN[*:3])C(=O)[*:2])[*:1]; cBuCO(3,3-F2-1-CF3) = O=C(C1(C(F)(F)F)CC(F)(F)C1)*; Pro(trans-4-F) = O=C(O)[C@@H]1C[C@@H](F)CN1; Gly(cPr) = N[C@H](C(=O)O)C1CC1
Remember the convention: pIC50 equals -log10 of concentration in molar.

Solved cases below.
Query: Recorded pIC50 for CC(C)C[C@@H]1NC(=O)[C@@H](N(C)C(=O)[C@@H](NC(=O)[C@@H]2C[C@@H](F)CN2C(=O)C2(C(F)(F)F)CC(F)(F)C2)C2CC2)CCCCCCCN(C)C(=O)[C@H](Cc2cc(Cl)ccc2-c2ccc([C@H]3CCCN(C)C3)cc2)N(C)C1=O [Example 412] ({cBuCO(3,3-F2-1-CF3)}-[Pro(trans-4-F)][Gly(cPr)][NMehhhLys(Me)]L[X62]; lactam 3-C) , please?
Result: 7.70

Query: Param item = CC(C)C[C@@H]1NC(=O)[C@@H](N(C)C(=O)[C@@H](NC(=O)[C@@H]2C[C@@H](F)CN2C(=O)C2(C(F)(F)F)CC(F)(F)C2)C2CC2)CCCCCCCNC(=O)[C@H](Cc2cc(Cl)ccc2C2=CCN(C(=O)C(C)C)CC2)N(C)C1=O [Example 98] ({cBuCO(3,3-F2-1-CF3)}-[Pro(trans-4-F)][Gly(cPr)][NMe(hhhLys)]L[X58]; lactam 3-C) ; retrieve measured pIC50.
Result: 7.70

Proceeding to the next compound to report its pIC50.
Query: For CC(C)C[C@@H]1NC(=O)[C@@H](N(C)C(=O)[C@@H](NC(=O)[C@@H]2C[C@@H](F)CN2C(=O)C2(C(F)(F)F)CCC2)C2CC2)CC=CCCCCNC(=O)[C@H](Cc2cc(Cl)cnc2OC2CC2)N(C)C1=O (single isomer, unassigned) [Example 107-P1] , what is its reported pIC50?
Result: 6.60

###

# experimental.system: CyclinA2/CDK2 (Homo sapiens, UniProt P20248)
# Construct: purchased CRELUX Protein Services
# run.description: Fluorescence Polarization (FP) competitive binding assay, Cyclin A2/Cdk2;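 also: plates equilibrated two hours at room temperature before polarization reading, IC50 fitted from eight-concentration compound titration curves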
# assay.setup: 8 nM Cyclin A2/Cdk2, 2 nM FAM probe; average of 2-3 independent experiments; read-out: Cyclin A FP IC50
*1 amine or outer side, *2 acyl side, *3 side chain or, on linkers, in order; H or OH if unused. Where a SMILES comes first, the peptide text is derived from it. Bridges are numbered along the chain shown (N, C = ends). [ ]: non-standard residue; d: D form. The star is where a group is joined. X95 = CN1CCCC[C@H]1c1ccc(-c2ccc(Cl)cc2C[C@@H](C(=O)[*:2])N(C)[*:1])cc1; X175 = Cc1cc(-c2ccc(Cl)cc2C[C@@H](C(=O)[*:2])N(C)[*:1])ccc1N1CCOCC1; NMehhhLys(Me) = CN([C@@H](CCCCCCCN(C)[*:3])C(=O)[*:2])[*:1]; X118 = Cc1cc(-c2ccc(Cl)cc2C[C@@H](C(=O)[*:2])N(C)[*:1])cnn1; X44 = Cc1nnc(-c2ccc(Cl)cc2C[C@@H](C(=O)[*:2])N(C)[*:1])o1; NMe(hhhLys) = CN([C@@H](CCCCCCCN[*:3])C(=O)[*:2])[*:1]; cBuCO(3,3-F2-1-CF3) = O=C(C1(C(F)(F)F)CC(F)(F)C1)*; Pro(trans-4-F) = O=C(O)[C@@H]1C[C@@H](F)CN1; Gly(cPr) = N[C@H](C(=O)O)C1CC1
value.kind: pIC50
Scale for pIC50: -log10 of concentration given in mol/L; no unit attached.

Query: Record request: pIC50 value, item Cc1cc(-c2ccc(Cl)cc2C[C@H]2C(=O)N(C)CCCCCCC[C@H](N(C)C(=O)[C@@H](NC(=O)[C@@H]3C[C@@H](F)CN3C(=O)C3(C(F)(F)F)CC(F)(F)C3)C3CC3)C(=O)N[C@@H](CC(C)C)C(=O)N2C)ccc1N1CCOCC1 [Example 344] ({cBuCO(3,3-F2-1-CF3)}-[Pro(trans-4-F)][Gly(cPr)][NMehhhLys(Me)]L[X175]; lactam 3-C)
Result: 7.70

Query: Please report the recorded pIC50 for Cc1nnc(-c2ccc(Cl)cc2C[C@H]2C(=O)N(C)CCCCCCC[C@H](N(C)C(=O)[C@@H](NC(=O)[C@@H]3C[C@@H](F)CN3C(=O)C3(C(F)(F)F)CC(F)(F)C3)C3CC3)C(=O)N[C@@H](CC(C)C)C(=O)N2C)o1 [Example 162] ({cBuCO(3,3-F2-1-CF3)}-[Pro(trans-4-F)][Gly(cPr)][NMehhhLys(Me)]L[X44]; lactam 3-C) .
Result: 7.70

Query: Looking for the measured pIC50 of CC[C@H](NC(=O)[C@@H]1C[C@@H](F)CN1C(=O)C1(C(F)(F)F)CC1)C(=O)N[C@H]1CC=CCCCCN(C)C(=O)[C@H](Cc2cc(Cl)ccc2Cl)N(C)C(=O)[C@H](CC(C)C)NC1=O [Example 13] , can you help?
Result: 7.00

Further cases:
Query: For the compound Cc1cc(-c2ccc(Cl)cc2C[C@H]2C(=O)NCCCCCCC[C@H](N(C)C(=O)[C@@H](NC(=O)[C@@H]3C[C@@H](F)CN3C(=O)C3(C(F)(F)F)CC(F)(F)C3)C3CC3)C(=O)N[C@@H](CC(C)C)C(=O)N2C)cnn1 [Example 295] ({cBuCO(3,3-F2-1-CF3)}-[Pro(trans-4-F)][Gly(cPr)][NMe(hhhLys)]L[X118]; lactam 3-C) , what pIC50 is on record?
Result: 7.15

Query: Name the reported pIC50 value associated with the compound CC(C)C[C@@H]1NC(=O)[C@@H](N(C)C(=O)[C@@H](NC(=O)[C@@H]2C[C@@H](F)CN2C(=O)C2(C(F)(F)F)CC(F)(F)C2)C2CC2)CCCCCCCN(C)C(=O)[C@H](Cc2cc(Cl)ccc2-c2ccc([C@@H]3CCCCN3C)cc2)N(C)C1=O [Example 417] ({cBuCO(3,3-F2-1-CF3)}-[Pro(trans-4-F)][Gly(cPr)][NMehhhLys(Me)]L[X95]; lactam 3-C)
Result: 7.52

Query: Fill in the blank: the reported pIC50 of CC(C)C[C@@H]1NC(=O)[C@@H](N(C)C(=O)[C@@H](NC(=O)[C@@H]2C[C@@H](F)CN2C(=O)C2(C(F)(F)F)CC(F)(F)C2)C2CC2)CC=CCCCCN(C)C(=O)[C@H](Cc2cc(F)ccc2-c2cnn(C3CCOC3)c2)N(C)C1=O (stereo partly drawn) [Example 85] is ____.
Result: 7.22
